Experiment: Panc-1005 Cancer Cell Toxicity qHTS against the NCATS CANVASS Library (AID 1347349); also: nearly all actives have a fitted effect of over 60% in size; also: potency is read from the fitted curve at half-maximal effect
Details: Panc-1005 viability, CellTiter-Glo luminescence, 72 h; series mostly up to 38.3 µM
Results filed as inconclusive are left out. The source made the active and inactive calls. Calls follow the shape of the dose curve; as a rule, active = well fitted cell-killing curve with a large enough effect; inconclusive = small, poorly fitted or top-dose-only effect; inactive = flat fitted curve, though single readings scatter. Numbered stars: 1 amine (or outer) side, 2 acyl side, 3 side chain; on linkers, the order of the positions; unused ones are H or OH. Bridge positions count the residues as written; N and C are the ends. Square brackets hold non-standard residues; d marks the D form. Peptide text beside a SMILES is read from it. ξ: configuration not given here. Phe(3R-OH) = O=C([C@@H](N[*:1])[C@H](O[*:3])c1ccccc1)[*:2]; NMeTrp(4-OMe) = CN[C@@H](Cc1c[nH]c2cccc(OC)c12)C(=O)O; X4 = O=C(C1CC2(c3ccc(O)cc3)c3ccccc3NC2N1[*:1])[*:2]; ξThr(3R)(O-yl) = C[C@@H](O[*:3])C(N[*:1])C(=O)[*:2]; NMeThr(3ξ) = CN[C@H](C(=O)O)C(C)O; ξW = NC(Cc1c[nH]c2ccccc12)C(=O)O; NMeL = CN[C@@H](CC(C)C)C(=O)O; NMeV = CN[C@H](C(=O)O)C(C)C; ξIle = CC[C@H](C)C(N)C(=O)O; ξY = NC(Cc1ccc(O)cc1)C(=O)O; ξV = CC(C)C(N)C(=O)O
measured-parameter: Potency

CC[C@H](C)[C@H](NC(=O)C(Cc1ccc(O)cc1)NC(=O)C(Cc1c[nH]c2ccccc12)NC(=O)[C@H](C)N)C(=O)N1C(C(=O)NC(Cc2ccc(O)cc2)C(=O)O)CC2(c3ccc(O)cc3)c3ccccc3NC12 (stereo not given in full) (H-A[ξW][ξY]I[X4][ξY]-OH): inactive
CO[C@@H]1[C@H](O)[C@@H](C)O[C@@H](OC[C@@H]2C(C)OC(=O)/C=C/[C@H](C)C(O[C@@H]3O[C@H](C)CC4(OC(=O)O[C@@H]4C)C3O)[C@@H](C)CC(C)C(=O)CC[C@H]3OC23)[C@@H]1OC (stereo not given in full): inactive
C[C@@]12CCC[C@@](C)(C(=O)O)[C@H]1CC[C@]13C[C@H]4C[C@H](O[C@@]4(C)C1)[C@H]32: inactive
CC[C@H](C)C(NC(=O)[C@@H](NC)C(C)C)C(=O)NC1C(=O)N(C)[C@@H](C(C)O)C(=O)N[C@@H](C(C)C)C(=O)N(C)[C@@H](CC(C)C)C(=O)NC(C(C)C)C(=O)N(C)[C@@H](C(C)C)C(=O)N(C)[C@@H](Cc2c[nH]c3cccc(OC)c23)C(=O)N[C@@H](C(C)C)C(=O)N[C@@H]([C@H](O)c2ccccc2)C(=O)N[C@@H](C(C)C)C(=O)O[C@@H]1C (stereo partly drawn) (H-[NMeV][ξIle][ξThr(3R)(O-yl)][NMeThr(3ξ)]V[NMeL][ξV][NMeV][NMeTrp(4-OMe)]V[Phe(3R-OH)]V; ester 3-C): inactive

Report Potency, nothing else, for this compound: `CC1=CC2=C[C@H](C)C[C@@]23OC(=C(C)C3=O)CC(C)(C)/C=C/C1=O`
943 nM (active)

* * *

Test: qHTS Assay for Lipid Storage Modulators (AID 1519); also: % is scaled to controls: 0 for no effect and ±100 for the full control effect
Details: Drosophila S3 cells, BODIPY lipid droplet/cell ratio, laser cytometry; at 57.5 µM (top of the series); cells loaded with oleic acid
Results filed as inconclusive are left out. Activity calls are given as the source filed them. The call rests on the fitted dose curve.
measured-parameter: activity change, negative = inhibition

Worked examples follow.
O=C(O)[C@H]1CN[C@H](C(=O)O)C1: 1.7% (inactive)
CCCCCCCCCC(=O)O[C@H](CC(=O)O)C[N+](C)(C)C: 3.92% (inactive)
N[C@]1(C(=O)O)CCc2cc(C(=O)O)ccc21: 5.84% (inactive)
O=C(NCCNC[C@@H](O)COc1ccc(O)cc1)N1CCOCC1: -3.4% (inactive)
CC(=O)O[C@H]1C[C@H]2CC[C@@H]3[C@H]4C[C@@H]([N+]5(C)CCCCC5)[C@@H](OC(C)=O)[C@]4(C)CC[C@@H]3[C@@]2(C)C[C@@H]1[N+]1(C)CCCCC1: -5.08% (inactive)

Please report the measured activity change, negative = inhibition for CCOC(=O)C(CCc1ccccc1)NC1CCc2ccccc2N(CC(=O)O)C1=O (configuration not stated)
1.93% (inactive)

Give a short answer stating reported activity change, negative = inhibition for `COc1cc(OC)c2ccc(=O)oc2c1` .
13.4% (inactive)

Dear colleague, please send me the reported activity change, negative = inhibition for `CCCn1c(=O)c2[nH]c(-c3ccc(OCC(=O)Nc4ccc(C(C)=O)cc4)cc3)nc2n(CCC)c1=O` when you can.
5.04% (inactive)
